Assay: Effect of co-administered extracts on the pharmacokinetics of theophylline in rats
Settings: male, Wistar, rat, in vivo, 240 mg/kg, Concentration of Theophylline in Rat Serum, Mean, Group 1 (water control); aminophylline 240 mg/kg p.o.; 60 min; mean n=6
READOUT NAME: concentration at 60 min

Form field concentration at 60 min, entry Cn1c(=O)c2[nH]cnc2n(C)c1=O [Theophylline, 1,3-dimethylxantin] : 177 µg/mL

====

Test: Effect of co-administered extracts on the pharmacokinetics of theophylline in rats
Conditions: male, Wistar, rat, in vivo, po, 240 mg/kg, MRT of Theophylline, Mean, Group 3 (Jarsin 300 pretreatment); rats; mean of 6 series (column A)
READOUT NAME: MRT (h)
Reply with just the number (in h).

Form field MRT, entry Cn1c(=O)c2[nH]cnc2n(C)c1=O [Theophylline, 1,3-dimethylxantin] : 5.44

====

Assay: Effect of co-administered extracts on the pharmacokinetics of theophylline in rats
Settings: male, Wistar, rat, in vivo, po, 240 mg/kg, MRT of Theophylline, Group 1 (water control); rats; calculated by mean concentrations
READOUT NAME: MRT

Form field MRT, entry Cn1c(=O)c2[nH]cnc2n(C)c1=O [Theophylline, 1,3-dimethylxantin] : 6.83 h

====

Test: Effect of co-administered extracts on the pharmacokinetics of theophylline in rats
Settings: male, Wistar, rat, in vivo, po, Cmax of Theophylline, Group 3 (Jarsin 300 pretreatment); rats; calculated by mean concentrations; 60 minutes
READOUT NAME: Cmax (ng/mL)
Reply with just the number (in ng/mL).

Form field Cmax, entry Cn1c(=O)c2[nH]cnc2n(C)c1=O [Theophylline, 1,3-dimethylxantin] : 41600

====

Assay: Effect of co-administered extracts on the pharmacokinetics of theophylline in rats
Conditions: male, Wistar, rat, in vivo, 240 mg/kg, Cmax of Theophylline, Group 1 (water control); rats; calculated by mean concentrations; 60 minutes
READOUT NAME: Cmax (µg/mL)
Reply with just the number (in µg/mL).

Form field Cmax, entry Cn1c(=O)c2[nH]cnc2n(C)c1=O [Theophylline, 1,3-dimethylxantin] : 177

====

Assay: Effect of co-administered extracts on the pharmacokinetics of theophylline in rats
Conditions: male, Wistar, rat, in vivo, po, 240 mg/kg, MRT of Theophylline, Group 2 (CRE pretreatment); rats; calculated by mean concentrations
READOUT NAME: MRT

Form field MRT, entry Cn1c(=O)c2[nH]cnc2n(C)c1=O [Theophylline, 1,3-dimethylxantin] : 5.14 h

====

Test: Effect of co-administered extracts on the pharmacokinetics of theophylline in rats
Conditions: male, Wistar, rat, in vivo, po, 240 mg/kg, Cmax of Theophylline, Mean, Group 2 (CRE pretreatment); rats; mean of 6 series (column A)
READOUT NAME: Cmax
The reply should consist of the numeric value with the unit placed after it.

Form field Cmax, entry Cn1c(=O)c2[nH]cnc2n(C)c1=O [Theophylline, 1,3-dimethylxantin] : 169 µg/mL

====

Test: Effect of co-administered extracts on the pharmacokinetics of theophylline in rats
Conditions: male, Wistar, rat, in vivo, Concentration of Theophylline in Rat Serum, Group 3 (Jarsin 300 pretreatment 3 days); aminophylline 240 mg/kg p.o.; 15 min; single rat
READOUT NAME: concentration at 15 min (ng/mL)
Reply with just the number (in ng/mL).

Form field concentration at 15 min, entry Cn1c(=O)c2[nH]cnc2n(C)c1=O [Theophylline, 1,3-dimethylxantin] : 6640
